- TARGET: human NK1 receptors (Homo sapiens, UniProt P25103)
- Construct: expressed in transfected cells; host or cells: CHO cells (Semliki virus expression system), membrane suspension
- Sequence (P25103 whole entry): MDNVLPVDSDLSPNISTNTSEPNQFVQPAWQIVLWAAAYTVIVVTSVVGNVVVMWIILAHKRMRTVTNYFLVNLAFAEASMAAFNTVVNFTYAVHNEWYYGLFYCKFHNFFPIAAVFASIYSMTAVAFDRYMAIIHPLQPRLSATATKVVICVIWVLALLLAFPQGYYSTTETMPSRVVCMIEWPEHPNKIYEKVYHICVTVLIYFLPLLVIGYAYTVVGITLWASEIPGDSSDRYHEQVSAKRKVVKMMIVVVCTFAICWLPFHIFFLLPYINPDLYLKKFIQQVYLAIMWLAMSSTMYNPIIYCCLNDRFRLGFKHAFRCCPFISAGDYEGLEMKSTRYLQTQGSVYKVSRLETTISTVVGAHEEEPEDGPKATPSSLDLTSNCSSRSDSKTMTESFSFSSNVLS
- TEST_SUMMARY: NK1 receptor binding assay, displacement of [3H]substance P
- CONDITION_DESCRIPTION: human NK1 receptors in CHO cells (Semliki virus expression system); [3H]substance P 0.6 nM; 60 min at room temperature; read-out: affinity to the NK-1 receptor, given as pKi (converted)
EXPERIMENTAL_ENDPOINT: Ki (nM)

[a] CN(C)CCCOc1ncc(C(=O)N(C)Cc2cc(C(F)(F)F)cc(C(F)(F)F)c2)c(-c2ccccc2Cl)n1 [Example 53]
[b] Cc1cc(F)ccc1-c1nc(N2CCNCC2)ncc1C(=O)N(C)Cc1cc(C(F)(F)F)cc(C(F)(F)F)c1 [Example 84]
[c] CN(C)CCOc1ncc(C(=O)N(C)Cc2cc(C(F)(F)F)cc(C(F)(F)F)c2)c(-c2ccccc2Cl)n1 [Example 52]
Q) In a descending ranking, list each entry from above by its Ki, from the largest value down to the smallest. Lab note: record answer as labels in requested order.
A) c, a, b
(c: 3.55 nM, a: 1.74 nM, b: 0.724 nM)
